Kindly state Kd for each of the entries shown.
measured on: human C5 complement protein (Homo sapiens, UniProt P01031)
Sequence (P01031 19-1676): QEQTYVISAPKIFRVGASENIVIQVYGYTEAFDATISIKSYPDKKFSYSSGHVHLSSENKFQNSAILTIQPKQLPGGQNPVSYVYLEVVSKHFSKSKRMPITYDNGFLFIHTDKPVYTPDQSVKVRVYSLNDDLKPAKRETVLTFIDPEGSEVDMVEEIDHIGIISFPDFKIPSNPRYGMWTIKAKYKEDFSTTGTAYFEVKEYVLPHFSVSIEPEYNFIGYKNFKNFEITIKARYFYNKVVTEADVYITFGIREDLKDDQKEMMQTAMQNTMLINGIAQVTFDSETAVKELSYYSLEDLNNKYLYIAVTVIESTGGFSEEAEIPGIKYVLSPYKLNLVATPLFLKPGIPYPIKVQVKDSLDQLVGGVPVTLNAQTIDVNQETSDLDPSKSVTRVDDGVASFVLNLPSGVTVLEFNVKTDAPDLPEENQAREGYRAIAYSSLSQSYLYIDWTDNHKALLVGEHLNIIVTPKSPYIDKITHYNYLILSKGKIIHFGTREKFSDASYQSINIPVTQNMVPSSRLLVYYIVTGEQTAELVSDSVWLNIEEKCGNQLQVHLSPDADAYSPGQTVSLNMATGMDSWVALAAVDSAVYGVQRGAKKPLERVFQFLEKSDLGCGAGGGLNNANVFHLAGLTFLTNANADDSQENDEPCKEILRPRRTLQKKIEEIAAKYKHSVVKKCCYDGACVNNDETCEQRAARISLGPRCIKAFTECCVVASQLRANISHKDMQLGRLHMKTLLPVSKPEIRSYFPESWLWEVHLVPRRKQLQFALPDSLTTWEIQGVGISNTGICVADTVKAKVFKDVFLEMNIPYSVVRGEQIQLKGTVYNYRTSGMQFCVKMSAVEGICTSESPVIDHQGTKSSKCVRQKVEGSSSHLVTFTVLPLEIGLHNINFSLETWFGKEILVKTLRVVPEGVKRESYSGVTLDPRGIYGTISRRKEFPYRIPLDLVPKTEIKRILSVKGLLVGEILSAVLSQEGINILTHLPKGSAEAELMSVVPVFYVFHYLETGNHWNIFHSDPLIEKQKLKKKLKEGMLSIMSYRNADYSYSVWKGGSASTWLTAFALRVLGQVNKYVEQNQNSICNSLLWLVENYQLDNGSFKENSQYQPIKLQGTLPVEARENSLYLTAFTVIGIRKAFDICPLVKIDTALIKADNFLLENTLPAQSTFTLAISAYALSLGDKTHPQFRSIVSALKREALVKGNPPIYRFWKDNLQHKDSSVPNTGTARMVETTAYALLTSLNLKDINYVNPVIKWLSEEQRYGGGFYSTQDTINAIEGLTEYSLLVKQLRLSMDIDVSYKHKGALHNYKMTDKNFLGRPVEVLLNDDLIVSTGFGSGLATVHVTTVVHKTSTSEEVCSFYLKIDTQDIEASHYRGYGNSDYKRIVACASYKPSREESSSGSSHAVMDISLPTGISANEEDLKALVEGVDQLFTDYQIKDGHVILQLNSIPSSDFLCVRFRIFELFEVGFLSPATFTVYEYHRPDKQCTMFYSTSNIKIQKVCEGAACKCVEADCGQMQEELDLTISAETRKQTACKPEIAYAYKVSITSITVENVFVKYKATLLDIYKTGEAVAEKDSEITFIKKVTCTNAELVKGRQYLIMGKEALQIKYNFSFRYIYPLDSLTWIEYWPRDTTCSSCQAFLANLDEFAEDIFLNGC
test summary: Surface plasmon resonance (SPR), immobilized human C5, 37° C. (Example 12, Table 21)
Assay type: binding
test conditions: where a range of compound concentrations were analyzed, the lowest value obtained
Answers are plain numbers, in µM.

Would you please look over these solved cases?
molecule	Kd / µM
CCCCCOc1cc(N2CCCN(Cc3ccnc4c3ccn4CC(=O)N3CCN(CCOC)CC3)C2=O)ccc1OC [CU0057]	0.018
CCCCCOc1cc(N2CCCN(Cc3cccc4c3ccn4CC(=O)N3CCOC(COC)C3)C2=O)ccc1OC (stereo not drawn) [CU0031]	0.006
CCCCCOc1cc(N2CCCN(Cc3ccc(Cc4nnco4)cc3OC)C2=O)ccc1OC [CU0120]	0.0036
CCCCCOc1cc(N2CCCN(Cc3cccc4c3ccn4CC(=O)N(C)C)C2=O)ccc1OC [CU0025]	0.005

Would you mind giving Kd for every molecule in the list below?
1. CCCCCOc1cc(N2CCCN(Cc3cccc4c3ccn4CC3(O)CCNCC3)C2=O)ccc1OC [CU0021]
2. CCCCCOc1cc(N2CCCN(Cc3cc(-c4cnn(C5COC5)c4)ccc3OC)C2=O)ccc1OC [CU0129]
3. CCCCCOc1cc(N2CCN(Cc3ccccc3OC)C2=O)ccc1OC [CU0001]

Data returned:
0.0015
0.0238
0.0295
